Items are presented alongside their recorded inhibition.
assay-target: Human immunodeficiency virus type 1 reverse transcriptase (Human immunodeficiency virus 1)
measurement-protocol: Inhibition of Human immunodeficiency virus 1 NL4.3 reverse transcriptase activity at 20 ug/ml
Please respond with the number in % and leave the unit unwritten.

{"compound": "COc1ccc2cc3[n+](cc2c1OC)CCc1cc2c(cc1-3)OCO2 [BERBERINE CHLORIDE]", "inhibition [%]": 94}
{"compound": "COc1ccc2cc3[n+](cc2c1OC(=O)c1ccc(F)cc1F)CCc1cc2c(cc1-3)OCO2", "inhibition [%]": 99}
{"compound": "COc1ccc2cc3[n+](cc2c1O)CCc1cc2c(cc1-3)OCO2 [BERBERRUBINE CHLORIDE]", "inhibition [%]": 99}

// next item, inhibition requested
*Q* Can you share its inhibition? I mean this compound: "COc1ccc2cc3[n+](cc2c1OC(=O)c1cccs1)CCc1cc2c(cc1-3)OCO2"
*A* 99

====

measurement-protocol: Therapeutic index, ratio of CC50 for human CEM cells expressing green fluorescent protein to EC50 for Human immunodeficiency virus 1 NL4.3
Assay type: cell-based, CCRF-CEM
test-parameters: read-out: TI
Items are presented alongside their recorded selectivity ratio.
Reply: number alone, nothing else.

Consider the reported selectivity ratio for these compounds:
{"compound": "COc1ccc2cc3[n+](cc2c1OC(=O)c1ccc(F)cc1F)CCc1cc2c(cc1-3)OCO2", "readout-type": "selectivity ratio", "result-value": 60.1}
{"compound": "COc1ccc2cc3[n+](cc2c1OC)CCc1cc2c(cc1-3)OCO2 [BERBERINE CHLORIDE]", "readout-type": "selectivity ratio", "result-value": 16.1}
{"compound": "COc1ccc2cc3[n+](cc2c1O)CCc1cc2c(cc1-3)OCO2 [BERBERRUBINE CHLORIDE]", "readout-type": "selectivity ratio", "result-value": 60.4}

// next item, selectivity ratio requested
*Q* Can you share its selectivity ratio? I mean this compound: "COc1ccc2cc3[n+](cc2c1OC(=O)c1cccs1)CCc1cc2c(cc1-3)OCO2"
*A* 50.5

====

measurement-protocol: Cytotoxicity against human CEM cells expressing green fluorescent protein after 48 hrs by MTT assay
Type: cell-based, CCRF-CEM
readout-type: CC50 at 48 h (µM)
Please respond with the number in µM and leave the unit unwritten.

Consider the reported CC50 at 48 h for these compounds:
{"compound": "COc1ccc2cc3[n+](cc2c1OC(=O)c1cccs1)CCc1cc2c(cc1-3)OCO2", "readout-type": "CC50 at 48 h", "result-value": 91.9}
{"compound": "COc1ccc2cc3[n+](cc2c1OC(=O)c1ccc(F)cc1F)CCc1cc2c(cc1-3)OCO2", "readout-type": "CC50 at 48 h", "result-value": 57.1}
{"compound": "COc1ccc2cc3[n+](cc2c1O)CCc1cc2c(cc1-3)OCO2 [BERBERRUBINE CHLORIDE]", "readout-type": "CC50 at 48 h", "result-value": 169}

// next item, CC50 at 48 h requested
*Q* Can you share its CC50 at 48 h? I mean this compound: COc1ccc2cc3[n+](cc2c1OC)CCc1cc2c(cc1-3)OCO2 [BERBERINE CHLORIDE]
*A* 2.09

# credit: ChEMBL document CHEMBL1759861
